Simple rule here: log10 Koc (L/kg) less than 3 is TRUE, otherwise FALSE.

Determine if "COC(=O)Nc1nc2ccccc2[nH]1" shows log10 Koc (L/kg) strictly lower than 3. TRUE

Determine if "O=C(Nc1cccc2ccccc12)c1ccccc1C(=O)[O][Na]" shows log10 Koc (L/kg) strictly lower than 3. FALSE

Determine if "CON(C)C(=O)Nc1ccc(Br)c(Cl)c1" shows log10 Koc (L/kg) strictly lower than 3. TRUE

Determine if "c1ccc2[nH]nnc2c1" shows log10 Koc (L/kg) strictly lower than 3. TRUE

Determine if "CCCSP(=O)(OCC)SCCC" shows log10 Koc (L/kg) strictly lower than 3. TRUE

Determine if "CC(C)N1C(=O)c2ccccc2[N]([Na])S1(=O)=O" shows log10 Koc (L/kg) strictly lower than 3. TRUE

Determine if "CCCCNC(=O)n1c(NC(=O)OC)nc2ccccc21" shows log10 Koc (L/kg) strictly lower than 3. TRUE

Determine if "OCc1ccc(-c2ccccc2)cc1" shows log10 Koc (L/kg) strictly lower than 3. TRUE

Determine if "CCSC(=O)N1CCCCCC1" shows log10 Koc (L/kg) strictly lower than 3. TRUE

Determine if "COC(=O)c1ccccc1S(=O)(=O)NC(=O)Nc1nc(C)cc(C)n1" shows log10 Koc (L/kg) strictly lower than 3. TRUE

Determine if "NC(=O)c1cc([N+](=O)[O-])cc([N+](=O)[O-])c1" shows log10 Koc (L/kg) strictly lower than 3. TRUE

Determine if "C[Si](Cn1cncn1)(c1ccc(F)cc1)c1ccc(F)cc1" shows log10 Koc (L/kg) strictly lower than 3. FALSE

Determine if "Cc1[nH]c(=O)n(C(C)(C)C)c(=O)c1Cl" shows log10 Koc (L/kg) strictly lower than 3. TRUE

Determine if "CNC(=O)Oc1cccc2c1OC(C)(C)O2" shows log10 Koc (L/kg) strictly lower than 3. TRUE

Determine if "O=C(O)c1ccc(O)cc1" shows log10 Koc (L/kg) strictly lower than 3. TRUE

Determine if "COc1nn(CSP(=S)(OC)OC)c(=O)s1" shows log10 Koc (L/kg) strictly lower than 3. TRUE

Determine if "COc1ccc(NC(C)=O)cc1Cl" shows log10 Koc (L/kg) strictly lower than 3. TRUE

Determine if "CCOP(=S)(OCC)Oc1nc(Cl)c(Cl)cc1Cl" shows log10 Koc (L/kg) strictly lower than 3. FALSE

Determine if "O=C(O)Cc1c(Cl)ccc(Cl)c1Cl" shows log10 Koc (L/kg) strictly lower than 3. TRUE

Determine if "Oc1cc(Cl)c(Cl)c(Cl)c1Cl" shows log10 Koc (L/kg) strictly lower than 3. FALSE

Determine if COP(=O)(OC)C(O)C(Cl)(Cl)Cl (centres undefined) shows log10 Koc (L/kg) strictly lower than 3. TRUE

Determine if CC1(C)[C@H](C(=O)O[C@H](C#N)c2cccc(Oc3ccccc3)c2)[C@@H]1C(Br)C(Br)(Br)Br (some centres undefined) shows log10 Koc (L/kg) strictly lower than 3. FALSE

Determine if "Cc1ccccc1C" shows log10 Koc (L/kg) strictly lower than 3. TRUE

Determine if "Clc1cc(Cl)c(-c2c(Cl)ccc(Cl)c2Cl)cc1Cl" shows log10 Koc (L/kg) strictly lower than 3. FALSE

Determine if CC(Oc1cc(Cl)c(Cl)cc1Cl)C(=O)O (centres undefined) shows log10 Koc (L/kg) strictly lower than 3. TRUE

Determine if "CCOP(=S)(OCC)SCCSCC" shows log10 Koc (L/kg) strictly lower than 3. FALSE

Determine if "CN(C)C(=O)c1ccccc1" shows log10 Koc (L/kg) strictly lower than 3. TRUE

Determine if "c1ccc2c(c1)[nH]c1ccccc12" shows log10 Koc (L/kg) strictly lower than 3. FALSE

Determine if "COc1ccc(NC(N)=O)cc1Cl" shows log10 Koc (L/kg) strictly lower than 3. TRUE

Determine if "C#CC(C)(C)NC(=O)c1ccc(F)cc1" shows log10 Koc (L/kg) strictly lower than 3. TRUE

Determine if "Clc1ccc(Cl)cc1" shows log10 Koc (L/kg) strictly lower than 3. TRUE

Determine if "CCCCOCCOC(=O)CCCOc1ccc(Cl)cc1Cl" shows log10 Koc (L/kg) strictly lower than 3. TRUE
